This collection of values is drawn from ChEMBL document CHEMBL3259688.

# test details: Displacement of [3H]DTG from sigma-2 receptor in rat liver membrane homogenate after 2 hrs by liquid scintillation counting analysis in presence of pentazocine
# Format: cell membranes
endpoint name: Ki (nM)
The figure you give is taken to be in nM; do not add the unit.

Given the entry `COc1ccc(Cn2cc(C(=O)NCCCCN3CCc4cc(OC)c(OC)cc4C3)nn2)cc1` , report its measured Ki. 5

Given the entry `COc1ccc(-n2cc(C(=O)NCCN3CCc4cc(OC)c(OC)cc4C3)nn2)cc1` , report its measured Ki. 410

Given the entry `COc1cc2c(cc1OC)CN(CCCCNC(=O)c1cc(C#N)ccc1OCc1cn(CCF)nn1)CC2` , report its measured Ki. 31.9

Given the entry `COc1ccc(Cn2cc(-c3ccc(C(=O)NCCCCN4CCc5cc(OC)c(OC)cc5C4)cc3)nn2)cc1` , report its measured Ki. 31.4

Given the entry `COc1cc2c(cc1OC)CN(CCCCNC(=O)c1cn(Cc3ccccc3)nn1)CC2` , report its measured Ki. 12.4

Given the entry `COc1ccccc1Cn1cc(C(=O)NCCN2CCc3cc(OC)c(OC)cc3C2)nn1` , report its measured Ki. 156

Given the entry `COc1cc2c(cc1OC)CN(CCCCNC(=O)c1cc(-n3cc(CN(C)C)nn3)ccc1OCCF)CC2` , report its measured Ki. 94

Given the entry `COc1ccccc1Cn1cc(C(=O)NCCCCN2CCc3cc(OC)c(OC)cc3C2)nn1` , report its measured Ki. 9.7

Given the entry `COc1ccc(Cn2cc(C(=O)NCCN3CCc4cc(OC)c(OC)cc4C3)nn2)cc1` , report its measured Ki. 93.2

Given the entry `COc1cccc(-n2cc(C(=O)NCCCCN3CCc4cc(OC)c(OC)cc4C3)nn2)c1` , report its measured Ki. 3

Given the entry `COc1cc2c(cc1OC)CN(CCCCNC(=O)c1cn(-c3ccccc3OCCF)nn1)CC2` , report its measured Ki. 24

Given the entry `COc1cc2c(cc1OC)CN(CCCCNC(=O)c1cn(-c3ccc(OCCF)cc3)nn1)CC2` , report its measured Ki. 21.9

Given the entry `COc1cc2c(cc1OC)CN(CCCCNC(=O)c1cn(Cc3cccc(OCCF)c3)nn1)CC2` , report its measured Ki. 62.1

Given the entry `C#CCOc1ccc(C#N)cc1C(=O)NCCCCN1CCc2cc(OC)c(OC)cc2C1` , report its measured Ki. 12.2

Given the entry `COc1cc2c(cc1OC)CN(CCCCNC(=O)c1ccc(-c3cn(CCOCCF)nn3)cc1)CC2` , report its measured Ki. 137
